# system.name: CHRM2 (Homo sapiens)
# Sequence (P08172 whole entry): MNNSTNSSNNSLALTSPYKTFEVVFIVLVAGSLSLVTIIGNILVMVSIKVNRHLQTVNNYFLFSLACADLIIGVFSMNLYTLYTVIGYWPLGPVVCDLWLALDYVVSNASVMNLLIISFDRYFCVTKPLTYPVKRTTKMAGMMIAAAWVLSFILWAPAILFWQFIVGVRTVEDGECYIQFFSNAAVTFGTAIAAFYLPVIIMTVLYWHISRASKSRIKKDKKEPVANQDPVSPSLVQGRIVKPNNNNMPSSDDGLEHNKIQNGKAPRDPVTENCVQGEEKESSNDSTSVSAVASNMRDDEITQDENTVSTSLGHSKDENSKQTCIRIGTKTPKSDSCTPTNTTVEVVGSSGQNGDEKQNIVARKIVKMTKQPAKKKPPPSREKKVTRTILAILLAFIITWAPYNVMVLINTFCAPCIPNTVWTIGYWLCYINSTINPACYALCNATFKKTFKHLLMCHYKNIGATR
# experiment.description: SAFETYscan cAMP CHRM2 Agonist
pEC50: −log10 of the molar value.

| molecule | system.name | pEC50 |
| --- | --- | --- |
| Cn1c(=O)c2c(c3cc(Nc4ccnc(F)c4Cl)ccc31)N[C@@H](C1CC1)C(F)(F)CO2 [compound 17] | CHRM2 (Homo sapiens) | 5.65 |

====

# system.name: ADRB1 (Homo sapiens, UniProt P08588)
# Sequence (P08588 whole entry): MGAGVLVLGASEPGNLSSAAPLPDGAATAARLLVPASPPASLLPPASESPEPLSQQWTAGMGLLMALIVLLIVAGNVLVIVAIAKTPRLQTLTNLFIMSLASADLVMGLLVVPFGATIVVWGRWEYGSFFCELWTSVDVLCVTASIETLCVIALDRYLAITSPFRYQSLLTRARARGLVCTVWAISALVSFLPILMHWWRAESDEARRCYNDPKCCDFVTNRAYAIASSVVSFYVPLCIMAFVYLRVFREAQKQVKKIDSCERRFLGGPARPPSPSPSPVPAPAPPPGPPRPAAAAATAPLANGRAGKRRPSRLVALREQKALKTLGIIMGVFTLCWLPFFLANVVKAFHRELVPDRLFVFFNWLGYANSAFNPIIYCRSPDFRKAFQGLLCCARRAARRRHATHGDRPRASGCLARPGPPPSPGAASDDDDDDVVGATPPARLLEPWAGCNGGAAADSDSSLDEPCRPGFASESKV
# experiment.description: SAFETYscan cAMP ADRB1 Agonist
# measurement.context: read-out: RC50 (EC50)
pEC50: −log10 of the molar value.

| structure.string | pEC50 |
| --- | --- |
| Cn1c(=O)c2c(c3cc(Nc4ccnc(F)c4Cl)ccc31)N[C@@H](C1CC1)C(F)(F)CO2 | < 5.00 |
